// provenance: patent US20100292255A1

Molecular target: purified human Hsp90
Construct: purified human Hsp90 (Stressgen, SPP-770)
Experiment: Hsp90 binding assay: displacement of BODIPY-labeled geldanamycin measured by fluorescence polarization
Conditions: BODIPY-GM 10 nM, Hsp90 30 nM, overnight at room temperature; read-out: GM displacement from purified Hsp90 measured by FP IC 50
For each of the compounds below, state its pIC50.
Answers are plain numbers, as −log10 of the molar value.

{"COMPOUND": "Nc1ncnc2c1nc(Sc1cc3c(cc1Br)OCCO3)n2CCC1CCN(C(=O)CO)CC1", "pIC50": 7.05}
{"COMPOUND": "COc1ccc(OC(F)(F)F)c(Sc2nc3c(N)ncnc3n2CCC2CCN(C(=O)CO)CC2)c1", "pIC50": 6.55}
{"COMPOUND": "C[C@@H](NC(=O)CC(C)(C)C)C(=O)N1CCC(Cn2c(Sc3cc4c(cc3Br)OCCO4)nc3c(N)ncnc32)CC1", "pIC50": 5.52}
{"COMPOUND": "CS(=O)(=O)N1CCCC(CCn2c(Sc3cc4c(cc3C#N)OCO4)nc3c(N)ncnc32)C1 (stereo not shown)", "pIC50": 7.05}
{"COMPOUND": "CO[C@@H](C)C(=O)N1CCC(CCn2c(Sc3cc4c(cc3C#N)OCO4)nc3c(N)ncnc32)CC1", "pIC50": 6.26}
{"COMPOUND": "N#Cc1cc2c(cc1Sc1nc3c(N)ncnc3n1CCC1CCN(C(=O)C3CC3(F)F)CC1)OCO2 (stereo not shown)", "pIC50": 6.70}

Please state pIC50 for every compound in the list that follows.
1. C[C@@H](O)C(=O)N1CCC(CCn2c(Sc3cc4c(cc3Br)OCCO4)nc3c(N)ncnc32)CC1
2. CC(C)(O)C(=O)N1CCC(CCn2c(Sc3cc4c(cc3Br)OCCO4)nc3c(N)ncnc32)CC1
3. Nc1ncnc2c1nc(Sc1cc3c(cc1Cl)OCO3)n2CCC1CCN(C=O)CC1
4. CC(=O)OCC(=O)N1CCC(CCn2c(Sc3cc4occc4cc3Br)nc3c(N)ncnc32)CC1

Marked response:
1. 7.14
2. 7.05
3. 6.69
4. 6.82

Please state pIC50 for every compound in the list that follows.
1. CS(=O)(=O)N1CCCC(CCn2c(Sc3cc4c(cc3Br)OCCO4)nc3c(N)ncnc32)C1 (stereo not shown)
2. CC(=O)N1CCC(CCn2c(Sc3cc4c(cc3[N+](=O)[O-])OCCO4)nc3c(N)ncnc32)CC1

Marked response:
1: 7.19; 2: 7.30

Please state pIC50 for every compound in the list that follows.
1. Nc1ncnc2c1nc(Sc1cc3c(cc1Br)OCO3)n2CCC(NC(=O)CO)C1CC1 (stereo not shown)
2. Nc1ncnc2c1nc(Sc1cc3occc3cc1Br)n2CCC1CCNCC1
3. CCC(=O)N1CCC(CCn2c(Sc3cc4c(cc3C#N)OCO4)nc3c(N)ncnc32)CC1
4. COc1ccc(C#N)c(Sc2nc3c(N)ncnc3n2CCC2CCN(C(=O)CO)CC2)c1
5. C[C@H](O)C(=O)N1CCC(CCn2c(Sc3cc4c(cc3Br)CCC4)nc3c(N)ncnc32)CC1

Marked response:
[6.77, 6.82, 6.70, 6.10, 6.80]

Please state pIC50 for every compound in the list that follows.
1. CN(C)C(CCn1c(Sc2cc3c(cc2Br)OCCO3)nc2c(N)ncnc21)C1CC1 (stereo not shown)
2. C[C@@H](O)C(=O)N1CCC(CCn2c(Sc3cc4c(cc3Cl)OCO4)nc3c(N)ncnc32)CC1

Marked response:
1: 6.69; 2: 6.40

Please state pIC50 for every compound in the list that follows.
1. CC(=O)N1CCC(CCn2c(Sc3cc4c(cc3[N+](=O)[O-])OCO4)nc3c(N)ncnc32)CC1
2. Nc1ncnc2c1nc(Sc1cc3c(cc1Br)OCCO3)n2CCC1CCN(C(=O)CS)CC1
3. CN1CCOc2cc(Sc3nc4c(N)ncnc4n3CCC3CCN(C=O)CC3)c(Br)cc21
4. Nc1ncnc2c1nc(Sc1cc3occc3cc1Cl)n2CCC1CCN(C=O)CC1
5. N#Cc1cc2c(cc1Sc1nc3c(N)ncnc3n1CCC1CCN(C=O)CC1)CCC2=O
6. C[C@@H](N)C(=O)N1CCCC(CCCn2c(Sc3cc4c(cc3Br)OCO4)nc3c(N)ncnc32)C1 (stereo partly shown)

Marked response:
1: 6.34; 2: 7.22; 3: 7.19; 4: 6.52; 5: 6.64; 6: 6.96

Please state pIC50 for every compound in the list that follows.
1. Nc1ncnc2c1nc(Sc1cc3c(cc1Br)CCC3)n2CCC1CCN(C=O)CC1
2. CO[C@@H](C)C(=O)N1CCC(CCn2c(Sc3cc4c(cc3Br)OCCO4)nc3c(N)ncnc32)CC1
3. Nc1ncnc2c1nc(Sc1cc3c(cc1Br)OCO3)n2C1CCN(C=O)CC1
4. COCC(=O)N1CCC(CCn2c(Sc3cc4c(cc3C#N)OCO4)nc3c(N)ncnc32)CC1
5. Nc1ncnc2c1nc(Sc1cc3c(cc1[N+](=O)[O-])OCO3)n2CCC1CCN(C=O)CC1

Marked response:
7.70
7.10
6.24
6.52
5.82
